Entry source: paper PMC7577125

# experimentSummary: in vivo
# runParameters: male, cynomolgus monkey, iv, 0.5 mg/kg
# Method: The same solution formulation was administered per os (p.o.) in the same species to determine oral bioavailability. Pharmacokinetic studies were performed at Wuxi (Shanghai, China) for studies in male mouse, rat, and cynomolgus monkey and at Sai (Pune, India) for studies in male dog. For all oral studies, the formulation was administered in the fasted state (food removed at least 12 h prior to dosing) to groups of 3 per arm.
experimentalEndpoint: half-life (h)
Write down the numeric answer in h and omit the unit.

Prompt line: Name the recorded half-life for O=C(NCc1cnc(C(F)(F)F)s1)c1ccc2c(c1)NC(=O)c1ccccc1S2(=O)=O .
Response line: 12.6
